These measurements were taken from ChEMBL document CHEMBL4613273.

Target: Fatty-acid amide hydrolase 1 (Homo sapiens)
Sequence (O00519 whole entry): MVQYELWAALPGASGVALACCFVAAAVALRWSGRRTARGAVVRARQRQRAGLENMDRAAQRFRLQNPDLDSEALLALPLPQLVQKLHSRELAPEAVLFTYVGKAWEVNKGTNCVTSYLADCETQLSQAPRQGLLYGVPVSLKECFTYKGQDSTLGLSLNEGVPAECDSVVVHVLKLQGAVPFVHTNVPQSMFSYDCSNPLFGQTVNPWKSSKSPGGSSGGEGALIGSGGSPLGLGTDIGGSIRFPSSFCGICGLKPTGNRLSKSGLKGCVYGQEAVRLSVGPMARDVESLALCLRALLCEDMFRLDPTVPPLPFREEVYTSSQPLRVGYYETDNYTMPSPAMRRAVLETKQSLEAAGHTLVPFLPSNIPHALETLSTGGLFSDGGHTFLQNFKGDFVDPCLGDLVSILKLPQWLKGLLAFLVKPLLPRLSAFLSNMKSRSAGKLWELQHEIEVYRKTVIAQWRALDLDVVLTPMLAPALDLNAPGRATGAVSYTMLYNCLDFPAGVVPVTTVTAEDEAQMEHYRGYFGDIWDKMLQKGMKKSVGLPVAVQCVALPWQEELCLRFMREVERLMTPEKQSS
Assay: Inhibition of human recombinant FAAH pre-incubated for 5 mins before substrate addition and further incubated for 30 mins by fluorescence assay
pIC50: −log10 of the molar value.
MEASUREMENT_TYPE: pIC50

-- ask Item O=C(Nc1cccc(Cl)c1)C1CCN(C(=O)c2ccc3ccccc3c2)CC1 has what recorded pIC50?
-- reply < 4.00

* * *

Target: Cannabinoid receptor 1 (Homo sapiens)
Sequence (P21554 whole entry): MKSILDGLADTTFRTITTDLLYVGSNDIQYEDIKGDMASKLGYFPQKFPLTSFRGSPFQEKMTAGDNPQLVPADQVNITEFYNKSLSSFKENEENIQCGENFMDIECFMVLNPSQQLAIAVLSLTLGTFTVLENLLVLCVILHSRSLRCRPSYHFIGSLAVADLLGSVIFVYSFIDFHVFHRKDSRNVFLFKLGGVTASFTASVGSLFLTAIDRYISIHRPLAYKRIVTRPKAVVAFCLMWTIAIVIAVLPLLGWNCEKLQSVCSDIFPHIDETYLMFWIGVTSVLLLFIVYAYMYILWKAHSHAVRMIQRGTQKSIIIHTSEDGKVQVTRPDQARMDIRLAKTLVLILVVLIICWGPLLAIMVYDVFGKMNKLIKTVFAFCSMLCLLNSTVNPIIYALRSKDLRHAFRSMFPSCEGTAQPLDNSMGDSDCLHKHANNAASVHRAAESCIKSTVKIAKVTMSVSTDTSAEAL
Test: Inhibition of CB1 receptor (unknown origin) expressed in Flpin-CHO cells incubated for 10 mins by Eu-cAMP tracer based cAMP accumulation assay
pEC50: −log10 of the molar value.
MEASUREMENT_TYPE: pEC50

-- ask Given O=C(Nc1cccc(Cl)c1)C1CCN(C(=O)c2ccc3ccccc3c2)CC1 , state its recorded pEC50.
-- reply < 5.00

* * *

Target: UniProtKB P34972
Sequence (P34972 whole entry): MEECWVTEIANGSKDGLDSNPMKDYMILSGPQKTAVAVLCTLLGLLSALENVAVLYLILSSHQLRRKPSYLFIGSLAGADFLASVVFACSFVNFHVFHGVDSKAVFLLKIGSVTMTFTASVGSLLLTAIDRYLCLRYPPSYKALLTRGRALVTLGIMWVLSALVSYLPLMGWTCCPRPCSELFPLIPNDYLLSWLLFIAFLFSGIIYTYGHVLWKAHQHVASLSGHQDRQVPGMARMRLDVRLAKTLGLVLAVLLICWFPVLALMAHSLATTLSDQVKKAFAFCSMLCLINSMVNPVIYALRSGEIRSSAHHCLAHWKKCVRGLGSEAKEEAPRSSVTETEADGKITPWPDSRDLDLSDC
Test: Inhibition of CB2 receptor (unknown origin) expressed in Flpin-CHO cells incubated for 10 mins by Eu-cAMP tracer based cAMP accumulation assay
pEC50: −log10 of the molar value.
MEASUREMENT_TYPE: pEC50

-- ask Could you tell me which pEC50 is on file for O=C(Nc1cccc(Cl)c1)C1CCN(C(=O)c2ccc3ccccc3c2)CC1 ?
-- reply < 5.00

* * *

Below: a set of entries, each annotated with reported IC50.
Molecular target: Monoglyceride lipase (Homo sapiens, UniProt Q99685)
Sequence (Q99685 whole entry): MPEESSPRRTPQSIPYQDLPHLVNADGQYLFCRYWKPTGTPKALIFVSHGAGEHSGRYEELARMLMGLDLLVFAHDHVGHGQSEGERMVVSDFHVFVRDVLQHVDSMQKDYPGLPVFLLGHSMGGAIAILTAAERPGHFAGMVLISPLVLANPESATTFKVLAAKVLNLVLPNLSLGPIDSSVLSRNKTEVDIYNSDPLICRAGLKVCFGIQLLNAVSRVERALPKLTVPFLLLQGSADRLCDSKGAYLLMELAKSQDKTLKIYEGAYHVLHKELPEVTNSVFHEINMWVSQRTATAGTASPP
Test: Inhibition of human recombinant MAGL pre-incubated for 5 mins before MAGL substrate addition and further incubated for 10 mins

{"columns": ["SMILES_RECORD", "STUDY_TARGET", "OBSERVED_RESULT"],
 "data": [
  ["COc1cccc(NC(=O)C2CCN(C(c3ccccc3)c3ccccc3)CC2)c1", "Monoglyceride lipase (Homo sapiens, UniProt Q99685)", "> 100 µM"],
  ["O=C(Nc1cccc(Cl)c1)C1CCN(C(=O)c2ccc(Cl)cc2)CC1", "Monoglyceride lipase (Homo sapiens, UniProt Q99685)", "> 100 µM"],
  ["Cc1cc(C)cc(NC(=O)C2CCN(C(c3ccc(F)cc3)c3ccc(F)cc3)CC2)c1", "Monoglyceride lipase (Homo sapiens, UniProt Q99685)", "> 100 µM"]
]}

Field: next compound
-- ask Any idea what its IC50 is? The compound is O=C(Nc1ccccc1)C1CCN(C(c2ccccc2)c2ccccc2)CC1
-- reply > 100 µM

* * *

Test: Half life in Sprague-Dawley rat plasma at 10 mg/kg, iv measured over 1 to 300 mins post dose by LC-MS/MS analysis
Type: ADME, organism-based
MEASUREMENT_TYPE: half-life (h)
Answer in h, number only, no unit symbol.

-- ask Report half-life for O=C(Nc1cccc(Cl)c1)C1CCN(C(=O)c2ccc3ccccc3c2)CC1 please.
-- reply 1.1

* * *

Experiment: Half life in Sprague-Dawley rat plasma at 10 mg/kg, ig measured over 1 to 300 mins post dose by LC-MS/MS analysis
Type: ADME, organism-based
Settings: po
MEASUREMENT_TYPE: half-life (h)
Numeric only. Scale: h

-- ask Which half-life is reported for this compound? O=C(Nc1cccc(Cl)c1)C1CCN(C(=O)c2ccc3ccccc3c2)CC1
-- reply 4.96

* * *

Assay: Cmax in Sprague-Dawley rat plasma at 10 mg/kg, iv measured over 1 to 300 mins post dose by LC-MS/MS analysis
Type: ADME, organism-based
Parameters: dose 10 mg/kg, route intravenous
MEASUREMENT_TYPE: Cmax (ng/mL)
Quick note: give the figure in ng/mL, leave out the unit.

-- ask What measured Cmax goes with O=C(Nc1cccc(Cl)c1)C1CCN(C(=O)c2ccc3ccccc3c2)CC1 ?
-- reply 5480

* * *

Experiment: Stability in mouse liver microsomes assessed as parent compound remaining level at 100 uM pre-incubated for 5 mins before NADPH addition and measured after 60 mins by UPLC-MS/MS analysis
Type: ADME, Microsome
Settings: read-out: Stability
MEASUREMENT_TYPE: remaining at 1 h, 100 µM (%)
Express your answer in %, writing the number without its unit.

-- ask # get_value(readout='remaining at 1 h, 100 µM', item= O=C(Nc1cccc(Cl)c1)C1CCN(C(=O)c2ccc3ccccc3c2)CC1 )
-- reply 57.9

* * *

Assay: Growth inhibition of mouse L929 cells at 20 uM incubated for 24 to 72 hrs relative to control
Type: cell-based
Conditions: read-out: GI
MEASUREMENT_TYPE: inhibition at 20 µM (%)
Use % as the unit, but write only the number.

-- ask Consider the compound O=C(Nc1cccc(Cl)c1)C1CCN(C(=O)c2ccc3ccccc3c2)CC1 and give its measured inhibition at 20 µM.
-- reply 8.6

* * *

Experiment: Stability in human liver microsomes assessed as parent compound remaining level at 100 uM pre-incubated for 5 mins before NADPH addition and measured after 60 mins by UPLC-MS/MS analysis
Type: ADME, Microsome
Conditions: read-out: Stability
MEASUREMENT_TYPE: remaining at 1 h, 100 µM (%)
Write the number in % without appending the unit.

-- ask Entry O=C(Nc1cccc(Cl)c1)C1CCN(C(=O)c2ccc3ccccc3c2)CC1 has what remaining at 1 h, 100 µM?
-- reply 88.5

* * *

Experiment: Tmax in Sprague-Dawley rat brain at 10 mg/kg, ig measured over 5 to 720 mins post dose by LC-MS/MS analysis
MEASUREMENT_TYPE: Tmax (min)
Numeric only. Scale: min

-- ask Which Tmax is listed for O=C(Nc1cccc(Cl)c1)C1CCN(C(=O)c2ccc3ccccc3c2)CC1 ?
-- reply 40

* * *

Assay: Protein binding in rat plasma at 20 to 500 ng/mL by ultracentrifugation assay
Format: ADME, cell-free
Details: read-out: PPB (converted)
MEASUREMENT_TYPE: fraction unbound
Just the number, please, no unit attached.

-- ask Record request: fraction unbound value, item O=C(Nc1cccc(Cl)c1)C1CCN(C(=O)c2ccc3ccccc3c2)CC1
-- reply 0.229

* * *

Molecular target: Monoglyceride lipase (Homo sapiens)
Test: Inhibition of human recombinant MAGL pre-incubated for 5 mins before MAGL substrate addition and further incubated for 10 mins
MEASUREMENT_TYPE: IC50

Before answering, review these 4 worked examples.
{"columns": ["SMILES_RECORD", "IC50"],
 "data": [
  ["O=C(Nc1cccc(Cl)c1)C1CCN(C(=O)c2ccc3ccccc3c2)CC1", "0.0147 µM"],
  ["O=C(Nc1cccc(Cl)c1)C1CCN(C(=O)c2ccccc2O)CC1", "> 100 µM"],
  ["COc1cccc(C(=O)N2CCC(C(=O)Nc3cccc(O)c3)CC2)c1", "> 100 µM"],
  ["Cc1cc(C)cc(NC(=O)C2CCN(C(c3ccccc3)c3ccccc3)CC2)c1", "> 100 µM"]
]}

Moving on to the next molecule.
-- ask Reported IC50 for O=C(Nc1ccccc1)C1CCN(C(c2ccc(F)cc2)c2ccc(F)cc2)CC1 : what is it?
-- reply > 100 µM
